- Measurement target: human muscarinic M4 receptor (Homo sapiens, UniProt P08173)
- Construct: expressed in transfected cells
- Sequence (P08173 whole entry): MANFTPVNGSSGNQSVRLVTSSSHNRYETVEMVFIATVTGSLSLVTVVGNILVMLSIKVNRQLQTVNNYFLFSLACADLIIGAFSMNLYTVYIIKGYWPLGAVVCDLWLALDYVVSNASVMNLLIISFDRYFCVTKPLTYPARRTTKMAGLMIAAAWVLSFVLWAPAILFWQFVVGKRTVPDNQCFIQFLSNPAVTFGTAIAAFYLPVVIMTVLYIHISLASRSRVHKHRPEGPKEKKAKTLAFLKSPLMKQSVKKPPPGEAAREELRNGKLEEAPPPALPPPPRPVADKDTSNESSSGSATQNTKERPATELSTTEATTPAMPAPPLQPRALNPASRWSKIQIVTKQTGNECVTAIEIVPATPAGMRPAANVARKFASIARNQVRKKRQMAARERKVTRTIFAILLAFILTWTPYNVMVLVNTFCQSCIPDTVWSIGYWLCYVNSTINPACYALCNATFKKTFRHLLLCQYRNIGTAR
- Assay: Alphascreen Surefire phospho-ERK1/2 functional assay, M4
- Assay type: cell-based
- Assay conditions: CHO, read-out: % Emax cf. ACh, M4, CHO cells stably expressing human M4; Emax compared with ACh
- Protocol: ERK1/2 phosphorylation is a downstream consequence of both Gq/11 and Gi/o protein coupled receptor activation, making it highly suitable for the assessment of M1, M3 (Gq/11 coupled) and M2, M4 receptors (Gi/o coupled), rather than using different assay formats for different receptor subtypes. […] Plates were incubated for 2 h with gentle agitation in the dark and then read on a PHERAstar plate reader. pEC50 and Emax figures were calculated from the resulting data for each receptor subtype.
Reported metric: Emax (%)
Give the number; % is assumed, so skip it.

Emax recorded for this compound, CCCC(=NOC)C1CCN(C2CC3(CCN(C(=O)OCC)C3)C2)CC1 (mixture of isomers) [2-3 Mixture of two isomers] , is 93

For record CCON=C(C)C1CCN(C2CCCN(C(=O)OCC)CC2)CC1 (single isomer, unassigned) [1-7 Isomer 1 (racemic)] the listed Emax is 52

So, CCOC(=O)N1CCC2(CC(N3CCC(C(C)=NOC)CC3)C2)C1 (single isomer, unassigned) [2-1 Mixture of isomers 2] ? Its Emax was 68

====

- Measurement target: human muscarinic M4 receptor (Homo sapiens)
- Construct: expressed in transfected cells
- Assay: Alphascreen Surefire phospho-ERK1/2 functional assay, M4
- Format: cell-based
- Assay conditions: CHO, read-out: % Emax cf. ACh, M4, CHO cells stably expressing human M4; Emax compared with ACh
Reported metric: Emax (%)
Report as a plain number; the unit % is understood.

>>> obs_value("CCOC(=O)N1CCCC(N2CCC(C(=NOC)C(C)C)CC2)CC1 (single isomer, unassigned) [1-4 Isomer 1 (racemic)]")
115
>>> obs_value("CCOC(=O)N1CCCC(N2CCC(C(C#N)=NOC(C)C)CC2)CC1 (mixture of isomers) [4-1 Mixture of isomers]")
72
>>> obs_value("CCOC(=O)N1CCCC(N2CCC(C(C)=NOC)CC2)CC1 (single isomer, unassigned) [1-1 Isomer 2 (racemic)]")
71

Please turn your attention to the following entry.
Note to self: Emax recorded for CCCC(=NOC)C1CCN(C2CC3(CCN(C(=O)OCC)C3)C2)CC1 (single isomer, unassigned) [2-3 Isomer 4] was 77

====

- Measurement target: human muscarinic M3 receptor (Homo sapiens, UniProt P20309)
- Construct: expressed in transfected cells
- Sequence (P20309 whole entry): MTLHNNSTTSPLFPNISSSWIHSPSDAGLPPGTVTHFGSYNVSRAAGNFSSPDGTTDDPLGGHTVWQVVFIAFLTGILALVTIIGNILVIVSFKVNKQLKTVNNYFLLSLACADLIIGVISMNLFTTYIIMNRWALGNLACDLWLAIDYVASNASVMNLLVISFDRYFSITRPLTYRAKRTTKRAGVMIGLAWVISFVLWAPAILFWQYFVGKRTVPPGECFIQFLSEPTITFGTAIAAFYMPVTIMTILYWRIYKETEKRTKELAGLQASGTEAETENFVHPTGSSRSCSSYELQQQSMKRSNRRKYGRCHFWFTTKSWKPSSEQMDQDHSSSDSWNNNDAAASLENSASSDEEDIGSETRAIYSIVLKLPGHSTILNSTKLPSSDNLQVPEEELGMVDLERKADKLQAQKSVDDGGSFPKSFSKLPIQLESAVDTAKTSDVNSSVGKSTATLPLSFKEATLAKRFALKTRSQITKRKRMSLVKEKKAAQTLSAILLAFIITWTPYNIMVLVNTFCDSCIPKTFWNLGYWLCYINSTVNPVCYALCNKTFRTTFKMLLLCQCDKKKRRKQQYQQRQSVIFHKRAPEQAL
- Assay: Alphascreen Surefire phospho-ERK1/2 functional assay, M3
- Format: cell-based
- Assay conditions: CHO cells stably expressing human M3; Emax compared with ACh
Please assign f whenever % Emax cf. ACh, M3 is at or above 4%, and t whenever it is below.

>>> assigned_class("CCOC(=O)N1CCC2(CC(N3CCC(C(CC)=NOC)CC3)C2)C1 (single isomer, unassigned) [2-2 Isomer 3]")
"t"
>>> assigned_class("CCOC(=O)N1CCCC(N2CCC(C(CC)=NOC)CC2)CC1 (single isomer, unassigned) [1-2 Isomer 1 (racemic)]")
"f"

Take the compound CCOC(=O)N1CCC[C@H](N2CCC(C(CC)=NOC)CC2)CC1 (single isomer, unassigned) [(S)-1-2 Isomer 2] and say whether its % Emax cf. ACh, M3 is less than 4%.
f

Determine if CCOC(=O)N1CCCC(N2CCC(C(CC)=NOC(C)C)CC2)CC1 (single isomer, unassigned) [1-12 Isomer 2 (racemic)] shows % Emax cf. ACh, M3 strictly lower than 4%.
t

hey, is % Emax cf. ACh, M3 for CCOC(=O)N1CCCC(N2CCC(C(CC)=NOC)CC2)CC1 (single isomer, unassigned) [1-2 Isomer 2 (racemic)] lower than 4% or not?
t

% Emax cf. ACh, M3 under 4%? Item: CCOC(=O)N1CCCC(N2CCC(C(=NOC)C(C)C)CC2)CC1 (single isomer, unassigned) [1-4 Isomer 2 (racemic)]
f

Strictly below 4%: is that where % Emax cf. ACh, M3 of CCOC(=O)N1CCC2(CC(N3CCC(C(CC)=NOC)CC3)C2)C1 (single isomer, unassigned) [2-2 Isomer 4] sits?
f

Identify whether the compound CCOC(=O)N1CCCC(N2CCC(C(CC)=NOC(C)C)CC2)CC1 (single isomer, unassigned) [1-12 Isomer 1 (racemic)] records % Emax cf. ACh, M3 below 4%.
f

Hey, just so you know, these numbers are from patent US11208396B2.
